Experiment: gradient 5% acetonitrile 3 min, to 50% in 2 min, to 85% in 15 min, held 3 min, 100 µL/min
Settings: column: Zorbax Extend-C18 2.1 x 50 mm; eluents: water / acetonitrile, 0.1% formic acid
Each entry below carries its recorded RP-LC retention time.

compound: Cc1cc(C)cc(NC(=O)C2CCCN2S(=O)(=O)c2ccc3c(c2)CCCC(=O)N3)c1 (stereo not drawn)
unit of measurement: s
RP-LC retention time: 835
//
compound: COC(=O)C(Cc1ccccc1)NC(=O)N1CCCn2nc(-c3cccs3)cc2C1 (stereo not drawn)
unit of measurement: s
RP-LC retention time: 841
//
compound: CC1=NS(=O)(=O)N(C)C=C1C(=O)OCc1noc(-c2ccccc2F)n1
unit of measurement: s
RP-LC retention time: 914
//
compound: CC(Oc1ccccc1F)C(=O)Nc1ccc(-c2nc(-c3ccc(F)cc3)no2)cc1 (stereo not drawn)
unit of measurement: s
RP-LC retention time: 1260
//
compound: Cc1cc(S(=O)(=O)N2CCC(OCc3noc(C4CCCO4)n3)CC2)ccc1Cl (stereo not drawn)
unit of measurement: s
RP-LC retention time: 1040
//
compound: CCc1nc2cc(-c3noc(-c4ccccc4C)n3)ccc2o1
unit of measurement: s
RP-LC retention time: 1280
//
compound: COc1ccc(CNC(=O)C2=C3CCCN3c3ccc(F)cc3S2(=O)=O)cc1
unit of measurement: s
RP-LC retention time: 876
//
compound: COc1ccc(NS(=O)(=O)c2cc(-c3[nH]ncc3C(=O)N3CCCC3)oc2C)cc1
unit of measurement: s
RP-LC retention time: 676
//
compound: O=C(CC1COc2ccccc2NC1=O)NCCc1cccs1 (stereo not drawn)
unit of measurement: s
RP-LC retention time: 689
//
compound: O=C(NC1CCCCCC1)C1CCN(S(=O)(=O)c2cc(-c3noc(C4CCC4)n3)cs2)CC1
unit of measurement: s
RP-LC retention time: 1110
//
compound: CCc1ccc(S(=O)(=O)c2cnc(N3CCN(c4ccccc4OC)CC3)nc2N)cc1
unit of measurement: s
RP-LC retention time: 1080
//
compound: Cc1ccc(CNC(=O)CC2CCOC3(CCN(S(C)(=O)=O)CC3)C2)o1 (stereo not drawn)
unit of measurement: s
RP-LC retention time: 705
//
compound: O=C(NCCc1ccco1)c1ccc2nc(CCc3ccccc3)oc2c1
unit of measurement: s
RP-LC retention time: 930
//
compound: Cc1sc2ncnc(N3CCCC(C)C3)c2c1C(=O)Nc1ccc(Cl)cc1 (stereo not drawn)
unit of measurement: s
RP-LC retention time: 1290
//
compound: COc1cccc2c(NC(=O)c3ccccc3F)cc(C)nc12
unit of measurement: s
RP-LC retention time: 579
//
compound: CC(C)C(=O)c1c(C(C)C)nn2ccccc12
unit of measurement: s
RP-LC retention time: 1010
//
compound: CCc1ccccc1N(C(=O)C1CCCCC1)C1C=CS(=O)(=O)C1 (stereo not drawn)
unit of measurement: s
RP-LC retention time: 894
//
compound: O=C(COc1ccccc1F)N1CCN(Cc2nc(C3CC3)cs2)CC1
unit of measurement: s
RP-LC retention time: 640

----------
Test: gradient 5% acetonitrile 3 min, to 50% in 2 min, to 85% in 15 min, held 3 min, 100 µL/min
Details: column: Zorbax Extend-C18 2.1 x 50 mm; eluents: water / acetonitrile, 0.1% formic acid
Give yes when the value for RP-LC retention time is at least 800 s. Give no when it is less.

compound: Cn1cnc(S(=O)(=O)N2CC(Oc3ccc(-c4nc(-c5ccccc5)no4)cc3)C2)c1
class assignment: yes
--
compound: COCC(=O)N(CC(=O)N1CCc2sccc2C1COc1ccc(F)cc1)C(C)(C)C (stereo unspecified)
class assignment: yes
--
compound: CN1CCC2(CC1)N=C(c1ccc(Br)cc1)CC(c1cc(Cl)ccc1O)N2 (stereo unspecified)
class assignment: no
--
compound: CCCc1noc(-c2ccc(-n3cnc(C(=O)NC4CCCCC4)c3)nc2)n1
class assignment: no
--
compound: COc1ccc(CN2CCC3(CC2)CC(O)CCO3)cc1C (stereo unspecified)
class assignment: no
--
compound: COc1cccc(N2CCN(C(=O)c3cc4c(-c5cccs5)nn(-c5ccccc5)c4n3C)CC2)c1
class assignment: yes
--
compound: Cc1nc(-c2ccc(F)cc2)sc1C(=O)N(C)C
class assignment: no
--
compound: COc1ccc(CNC(=O)C2(C)CCN(S(=O)(=O)c3cccc(Cl)c3C)CC2)cc1
class assignment: yes
--
compound: CCCCN1CCN(S(=O)(=O)c2ccc(-c3nnc(C4CCCC4)o3)o2)CC1
class assignment: no

----------
Recorded RP-LC retention time by entry
Assay: gradient 5% acetonitrile 3 min, to 50% in 2 min, to 85% in 15 min, held 3 min, 100 µL/min
Details: column: Zorbax Extend-C18 2.1 x 50 mm; eluents: water / acetonitrile, 0.1% formic acid

compound: CC1=NS(=O)(=O)N(Cc2ccccc2)C=C1C(=O)OCc1ccc(F)cc1F
RP-LC retention time / s: 1090
//
compound: CCOC(=O)C1CCN(c2cc(C)nc3nc(-c4ccc(OC)cc4)nn23)CC1
RP-LC retention time / s: 881
//
compound: O=S(=O)(c1ccccc1C(F)(F)F)N1CCc2nc(-c3ccccc3)ncc2C1
RP-LC retention time / s: 1110
//
compound: O=C(NC1CCN(c2cc(-c3ccc(F)cc3)[nH]n2)C1)c1ccccc1Br (stereo not given)
RP-LC retention time / s: 668
//
compound: O=C(Nc1nc(-c2ccccc2)cs1)C1Cc2ccccc2CN1S(=O)(=O)c1cccs1 (stereo not given)
RP-LC retention time / s: 1160

----------
Measured RP-LC retention time, listed per entry for reference.
Test: gradient 5% acetonitrile 3 min, to 50% in 2 min, to 85% in 15 min, held 3 min, 100 µL/min
Settings: column: Zorbax Extend-C18 2.1 x 50 mm; eluents: water / acetonitrile, 0.1% formic acid
metric: RP-LC retention time (s)

compound: Cc1ccc2c(c1)C(O)(CC(=O)c1cccc(Cl)c1)C(=O)N2 (stereo not given)
assay result: 785

compound: Cc1nc(C2CCOCC2)n(C2CCN(S(=O)(=O)c3c(C)c(C)cc(C)c3C)C2)n1 (stereo not given)
assay result: 874

compound: Cc1noc(-c2cccc(OC3CN(C(=O)c4cccn4C)C3)c2)n1
assay result: 898

compound: COc1ccc(C(=O)n2nc(C)cc2C)cc1OC
assay result: 788

compound: CCc1ccc(S(=O)(=O)N2CCC3(CC2)NCCN=C3NCc2cc(F)cc(F)c2)cc1
assay result: 798

----------
Listing: RP-LC retention time of selected compounds
Test: gradient 5% acetonitrile 3 min, to 50% in 2 min, to 85% in 15 min, held 3 min, 100 µL/min
Settings: column: Zorbax Extend-C18 2.1 x 50 mm; eluents: water / acetonitrile, 0.1% formic acid

compound: Cc1ccc(-n2c(N3CCC(C(=O)NCC4CC4)CC3)nc3ccsc3c2=O)cc1
RP-LC retention time: 808 s

compound: CCOc1ccc(N2CC(c3nnc(NC(=O)c4ccc(Cl)cc4)o3)CC2=O)cc1 (stereo not drawn)
RP-LC retention time: 803 s

compound: COc1cccc(-c2noc(Cn3ccn(-c4ccccc4)c(=O)c3=O)n2)c1
RP-LC retention time: 812 s

----------
Test: gradient 5% acetonitrile 3 min, to 50% in 2 min, to 85% in 15 min, held 3 min, 100 µL/min
Settings: column: Zorbax Extend-C18 2.1 x 50 mm; eluents: water / acetonitrile, 0.1% formic acid
Reported RP-LC retention time by item:

compound: Cn1cc(S(=O)(=O)N2CCC(C(=O)Nc3ccc4c(c3)OCO4)CC2)cc1C(=O)N1CCCC1
RP-LC retention time (s): 716
--
compound: COc1ccc(S(=O)(=O)Nc2ccc(-c3cn4ccc(C)nc4n3)cc2)c(C)c1C
RP-LC retention time (s): 715
--
compound: Cc1ccc(S(=O)(=O)N2CCCC(Cn3cnc4cccnc43)C2)c(C)c1 (stereo not given)
RP-LC retention time (s): 821
--
compound: O=C(NCCn1cnc2cc(C(=O)N3CCCC3)ccc21)Nc1cccc(Br)c1
RP-LC retention time (s): 623
--
compound: Cc1csc(-c2ccc(CNC(=O)c3ccnn3C)cc2)n1
RP-LC retention time (s): 772
--
compound: CC(C)Cc1cc(-c2nn3c(COc4ccc(Br)cc4)nnc3s2)n[nH]1
RP-LC retention time (s): 1030
--
compound: CCc1nc(C)c(C)c2nn(Cc3cccc(C#N)c3)c(=O)n12
RP-LC retention time (s): 919
--
compound: CCN1C(=O)c2cc(S(=O)(=O)Nc3ccc(Cl)cc3)ccc2Oc2cccnc21
RP-LC retention time (s): 1050
--
compound: Cc1nnc2ccc(S(=O)(=O)N(Cc3cccc(F)c3)c3ccccc3)cn12
RP-LC retention time (s): 866
--
compound: CCOC(=O)c1ccccc1NC(=O)N(CC)Cc1cc(=O)[nH]c2ccccc12
RP-LC retention time (s): 907
--
compound: CCc1nn(CC(=O)N2CCN(c3ccccn3)CC2)c(=O)c2cc3ccccc3n12
RP-LC retention time (s): 607
--
compound: CC(C)CNC(=O)C1CCCN(c2ncnc3c2oc2ccccc23)C1 (stereo not given)
RP-LC retention time (s): 725
--
compound: COc1ccc(NC(=O)Cn2c(=O)c(CCC(=O)NC3CCCC3)nc3ccccc32)cc1Cl
RP-LC retention time (s): 681
--
compound: COc1ccc(C(=O)NC2CCN(c3cc(-c4ccc(F)cc4)[nH]n3)C2)c(OC)c1 (stereo not given)
RP-LC retention time (s): 740
--
compound: COc1ccc(CCc2nc3nccc(-c4ccccc4)n3n2)cc1OC
RP-LC retention time (s): 821
--
compound: CCNC(=O)c1ccc(-n2c(C)ccc2C)nc1
RP-LC retention time (s): 566
--
compound: COCCNC(=O)N1c2ccccc2NC2=C(C(=O)CC(C)(C)C2)C1c1ccccc1OC (stereo not given)
RP-LC retention time (s): 725
--
compound: Cc1cc(=O)c2c(C)ccc(C)c2[nH]1
RP-LC retention time (s): 677
--
compound: Cc1nn(-c2cc(N3CCCCC3)ncn2)c(C)c1CCC(=O)NCc1ccco1
RP-LC retention time (s): 811
--
compound: CCN(Cc1ccccc1)Cc1nc(-c2ccc(N3CCCC3)nc2)no1
RP-LC retention time (s): 640

Cited source: the METLIN SMRT retention time set (Domingo-Almenara et al. 2019)
